- assay procedure: Elimination half life in iv dosed dog
- Assay type: ADME, organism-based, Canis lupus familiaris
- details: in vivo, read-out: beta t1/2 (converted)
property measured: half-life
Could you kindly put the unit after your number?

Memo: CC(C)OC(=O)N1CCC(Oc2ncnc3c2cnn3-c2ccc(S(C)(=O)=O)cc2F)CC1 , reported half-life: 48 min

----------
Give measured EC50 for each item. Keep answers brief.
- target desc: Glucose-dependent insulinotropic receptor (Homo sapiens)
- Sequence (Q8TDV5 whole entry): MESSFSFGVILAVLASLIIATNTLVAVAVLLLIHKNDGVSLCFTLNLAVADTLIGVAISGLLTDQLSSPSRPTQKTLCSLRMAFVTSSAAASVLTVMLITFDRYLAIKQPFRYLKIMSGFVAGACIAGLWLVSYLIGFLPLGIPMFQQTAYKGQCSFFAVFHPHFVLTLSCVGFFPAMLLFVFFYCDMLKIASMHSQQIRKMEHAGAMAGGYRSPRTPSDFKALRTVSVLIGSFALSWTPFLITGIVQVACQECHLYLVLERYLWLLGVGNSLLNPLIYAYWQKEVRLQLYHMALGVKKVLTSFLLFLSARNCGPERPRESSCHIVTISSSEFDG
- assay procedure: Agonist activity at human GPR119 by melanophore assay
The reply should be a number in nM, with the unit left off.

Summary: CC(C)(C)OC(=O)N1CCC(Oc2ncnc3c2nnn3-c2ccc(S(C)(=O)=O)cc2)CC1 , Glucose-dependent insulinotropic receptor (Homo sapiens), EC50 = 7.4

The measured EC50 that CC(C)COC(=O)N1CCC(Oc2ncnc3c2cnn3-c2ccc(S(C)(=O)=O)cc2)CC1 showed for Glucose-dependent insulinotropic receptor (Homo sapiens) is 4.2

Fill in: Glucose-dependent insulinotropic receptor (Homo sapiens) EC50 for CC(C)c1noc(C2CCN(c3ncnc(Nc4ccc(S(C)(=O)=O)cc4)c3[N+](=O)[O-])CC2)n1 = 5.1

Summary line: CC(C)(C)OC(=O)N1CCC(Oc2ncnc3c2[nH]c(=O)n3-c2ccc(S(C)(=O)=O)cc2F)CC1 , Glucose-dependent insulinotropic receptor (Homo sapiens), reported EC50 = 0.6

Considering CC(C)OC(=O)N1CCC(Oc2ncnc3c(-c4ccc(S(C)(=O)=O)cc4)noc23)CC1 , its EC50 with Glucose-dependent insulinotropic receptor (Homo sapiens) was recorded as 14

# lookup: Cc1nn(-c2ccc(S(C)(=O)=O)cc2)c2ncnc(OC3CCN(C(=O)OC(C)(C)C)CC3)c12 on Glucose-dependent insulinotropic receptor (Homo sapiens), EC50 = 15

Field EC50 (system: Glucose-dependent insulinotropic receptor (Homo sapiens)) for entry CC(C)(C)OC(=O)N1CCC(Oc2ncnc3c2cnn3-c2ccc(S(C)(=O)=O)cc2)CC1 = 1.1
